Listed here are compounds together with their documented GI50.
Test system: SK-MEL-28 melanoma
Assay protocol: NCI tumour cell line growth inhibition, 48 h

// GI50 lookup, compound = CSC(=NC#N)S/C=C/C(=O)c1cccc2ccccc12 , result: 28.7 µM

GI50 in this record for C=C(CN(C)Cc1ccccc1)c1ccc(C(=O)Nc2ccccc2N)cc1 : 7.79 µM

Sure, the documented GI50 for COc1ccc(C2SCC(=O)N2NC(=O)C(O)c2ccccc2)cc1 (configuration not stated) is > 100 µM

Entry Cc1ccc(NC(=O)N2CCCCC2)cc1[N+](=O)[O-] , GI50 reported as > 100 µM

The recorded GI50 for COc1cc2oc(-c3cccc(C(=O)Nc4ccc(C)cc4)c3)cc(=O)c2c(OC)c1OC is 1.67 µM

Entry under test: O=c1oc2c(cc1-c1ccccc1)C(O)Oc1ccccc1-2 (configuration not stated) . Its GI50 was 3.1 µM

response.value for N#CSCC1CC(O)(c2ccccc2)CC(c2ccc(Cl)cc2)O1 (configuration not stated) (field: GI50) = 1.84 µM

Given item OCC#CCCCCOCC#Cc1ccccc1C#CCOCCCCC#CCO , the value recorded as its GI50 is 20.1 µM
